# EXPERIMENTAL_PROTOCOL: Pharmacokinetics: plasma and brain concentration after IP injection
# Type: in vivo, mouse
# MEASUREMENT_SETUP: female, CD-1, mouse; mice, IP 15 mg/kg, 4 h, brain, mean of 3
Positions of bridges follow the written chain, without caps; N, C: chain ends. Non-standard residues stand in square brackets, D forms with d. Residues, ends and D or L forms follow the SMILES beside them. Nle = CCCC[C@H](N)C(=O)O
QUANTITY_NAME: tissue level at time at 4 h (ng/g)

COMPOUND: CCCC[C@H](NC(=O)[C@H](CCCNC(=N)N)NC(C)=O)C(=O)N[C@H]1CSSC[C@@H](C(N)=O)NC(=O)[C@H](Cc2c[nH]c3ccccc23)NC(=O)[C@H](CCCNC(=N)N)NC(=O)[C@@H](Cc2ccccc2)NC(=O)[C@H](Cc2c[nH]cn2)NC1=O [CTX-1227, Arg-Nle-cyclo(Cys-His-D-Phe-Arg-Trp-Cys)] (Ac-R[Nle]CH[dF]RWC-NH2; disulfide 3-8 (inferred))
QUANTITY_NAME: tissue level at time at 4 h
READOUT_VALUE: 170

* * *

# TGT: human MC1R (Homo sapiens, UniProt Q01726)
# Construct: expressed in transfected cells; host or cells: HEK-293 cells stably expressing hMC1R and the GScAMP22F cAMP sensor
# Sequence (Q01726 whole entry): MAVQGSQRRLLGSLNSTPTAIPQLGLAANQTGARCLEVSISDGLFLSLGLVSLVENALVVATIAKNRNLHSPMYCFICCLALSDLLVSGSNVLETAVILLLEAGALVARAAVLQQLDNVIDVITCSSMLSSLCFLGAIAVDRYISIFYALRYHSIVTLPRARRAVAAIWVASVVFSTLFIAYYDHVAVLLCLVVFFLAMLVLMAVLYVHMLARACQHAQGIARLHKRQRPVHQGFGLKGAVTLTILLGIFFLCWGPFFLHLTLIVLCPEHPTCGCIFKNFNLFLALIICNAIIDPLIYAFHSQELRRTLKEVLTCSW
# EXPERIMENTAL_PROTOCOL: split-luciferase cAMP sensor assay, agonist mode, hMC1R
# Assay type: cell-based
# MEASUREMENT_SETUP: MC4R versus MC1R
Positions of bridges follow the written chain, without caps; N, C: chain ends. Non-standard residues stand in square brackets, D forms with d. Residues, ends and D or L forms follow the SMILES beside them. 3Pal = N[C@@H](Cc1cccnc1)C(=O)O; Cit = NC(=O)NCCC[C@H](N)C(=O)O; Nle = CCCC[C@H](N)C(=O)O

MOLECULE: C[C@H]1NC(=O)CSC[C@@H](C(N)=O)NC(=O)[C@H](Cc2c[nH]c3ccccc23)NC(=O)[C@H](CCCNC(=N)N)NC(=O)[C@@H](Cc2ccccc2)NC(=O)[C@H](CCCNC(N)=O)NC1=O [CTX-1643] ({CH2CO}-[dA][Cit][dF]RWC-NH2; thioether N-6)
MC4R selectivity vs MC1R: 261
--
MOLECULE: CC(=O)N[C@@H](CCCNC(=N)N)C(=O)N[C@H]1CSSC[C@@H](C(N)=O)NC(=O)[C@H](Cc2c[nH]c3ccccc23)NC(=O)[C@H](CCCNC(=N)N)NC(=O)[C@@H](Cc2ccccc2)NC(=O)[C@H](CCCNC(N)=O)NC(=O)[C@@H](C)NC1=O
MC4R selectivity vs MC1R: 134
--
MOLECULE: CCCC[C@H](NC(=O)[C@H](CCCNC(=N)N)NC(C)=O)C(=O)N[C@H]1CSSC[C@@H](C(N)=O)NC(=O)[C@H](Cc2c[nH]c3ccccc23)NC(=O)[C@H](CCCNC(=N)N)NC(=O)[C@@H](Cc2ccccc2)NC(=O)[C@H](Cc2cccnc2)NC1=O [CTX-1620] (Ac-R[Nle]C[3Pal][dF]RWC-NH2; disulfide 3-8 (inferred))
MC4R selectivity vs MC1R: 47
--
MOLECULE: CC(=O)N[C@@H](CCCNC(=N)N)C(=O)N[C@H]1CSSC[C@@H](C(N)=O)NC(=O)[C@H](Cc2c[nH]c3ccccc23)NC(=O)[C@H](CCCNC(=N)N)NC(=O)[C@@H](Cc2ccccc2)NC(=O)[C@H](CCCNC(=N)N)NC(=O)[C@H](C)NC1=O [CTX-1267, Arg-cyclo(Cys-Ala-Arg-D-Phe-Arg-Trp-Cys)] (Ac-RCAR[dF]RWC-NH2; disulfide 2-8)
MC4R selectivity vs MC1R: 0.5
